Exercise: for every item that follows, state its recorded IC50.
biological target: Bcl-2 G101V (Homo sapiens, UniProt P10415, G101V); assay: Bcl-2 G101V inhibition, fluorescence polarization (Flu-BIM tracer) binding assay; details: FP; 20 nM Bcl2, 5 nM Flu-BIM, 1 h incubation; read-out: Bcl-2 G101V (FP)
Return type: number; implicit unit nM.

// fetch IC50 given entry CC1(C)CCC(CN2CCN(c3ccc(C(=O)NS(=O)(=O)c4ccc(NC[C@H]5CC[C@](C)(O)CC5)c([N+](=O)[O-])c4)c(Oc4cnc5[nH]ccc5c4)c3)CC2)=C(c2cc(-c3ccc4c(c3)CCC4(C)O)cs2)C1 (stereo partly drawn)
22.1

Fill in reported IC50 for this entry: CC1(C)CCC(CN2CCN(c3ccc(C(=O)NS(=O)(=O)c4ccc(NC[C@H]5CC[C@](C)(O)CC5)c([N+](=O)[O-])c4)c(Oc4cnc5[nH]ccc5c4)c3)CC2)=C(c2cc(-c3ccc(C(F)(F)F)cc3)cs2)C1
34.4

For the compound CC1(C)CCC(CN2CCN(c3ccc(C(=O)NS(=O)(=O)c4ccc(NC[C@H]5CC[C@](C)(O)CC5)c([N+](=O)[O-])c4)c(Oc4cnc5[nH]ccc5c4)c3)CC2)=C(c2cc(-c3ccc(C(C)(C)C#N)cc3)cs2)C1 , give its measured IC50 value.
27.6

Write down IC50 measured for item CC(C)(O)Cc1ccc(-c2csc(C3=C(CN4CCN(c5ccc(C(=O)NS(=O)(=O)c6ccc(NC[C@H]7CC[C@](C)(O)CC7)c([N+](=O)[O-])c6)c(Oc6cnc7[nH]ccc7c6)c5)CC4)CCC(C)(C)C3)c2)c(F)c1
25.2

Give a short answer stating reported IC50 for CC(C)c1csc(C2=C(CN3CCN(c4ccc(C(=O)NS(=O)(=O)c5ccc(NC[C@H]6COCCO6)c([N+](=O)[O-])c5)c(Oc5cnc6[nH]ccc6c5)c4)CC3)CCC(C)(C)C2)c1 .
27.7

Tell me measured IC50 for CC1(C)CCC(CN2CCN(c3ccc(C(=O)NS(=O)(=O)c4ccc(NC[C@H]5CC[C@](C)(O)CC5)c([N+](=O)[O-])c4)c(Oc4cnc5[nH]ccc5c4)c3)CC2)=C(c2cc(-c3c(F)ccc(F)c3F)cs2)C1 please.
33.2

Read the entry CC1(C)CCC(CN2CCN(c3ccc(C(=O)NS(=O)(=O)c4ccc(NC[C@H]5CC[C@](C)(O)CC5)c([N+](=O)[O-])c4)c(Oc4cnc5[nH]ccc5c4)c3)CC2)=C(c2cc(-c3ccc(C(C)(C)O)c(F)c3)cs2)C1 and write its reported IC50.
20.3

Read the entry CC1(C)CCC(CN2CCN(c3ccc(C(=O)NS(=O)(=O)c4ccc(NC[C@H]5COCCO5)c([N+](=O)[O-])c4)c(Oc4cnc5[nH]ccc5c4)c3)CC2)=C(c2cc(CN3CCN(C4COC4)CC3)cs2)C1 and write its reported IC50.
59.2

Consider the compound CC1(C)CCC(CN2CCN(c3ccc(C(=O)NS(=O)(=O)c4ccc(NC[C@H]5COCCO5)c([N+](=O)[O-])c4)c(Oc4cnc5[nH]ccc5c4)c3)CC2)=C(c2cc(CN3CCC(N4CCOCC4)CC3)cs2)C1 and give its recorded IC50.
47
